This collection of values is drawn from ChEMBL document CHEMBL1782009.

Test system: HepG2
assay-name: Cytotoxicity against human HepG2 cells assessed as surviving fraction at 50 ug/ml after 48 hrs by SRB assay relative to control
Type: functional
For each record, write down the corresponding Activity.
Give the figure by itself; no unit, no explanation.

// COc1ccc(N2C(=O)N(c3ccc(C)cc3)C(=N)C2=S)c(OC)c1 : Activity value = 0.24

Input COc1ccc(N2C(=O)N(c3ccc(SC)cc3)C(=N)C2=S)c(OC)c1 . Output Activity: 0.24

For N=C1C(=S)N(c2ccc(Cl)cc2)C(=O)N1Cc1ccccc1 the molecule record lists Activity as 0.3

// COc1ccc(N2C(=N)C(=S)N(c3ccc(OC)cc3OC)C2=O)cc1 : Activity value = 0.23

====

Test system: HEp-2
assay-name: Cytotoxicity against human Hep2 cells assessed as surviving fraction at 12.5 ug/ml after 48 hrs by SRB assay relative to control
Assay type: functional
Task for the reader: assign each of the following molecules its reported Activity.
Please reply with the value in numeric form only.

The recorded Activity for COc1ccc(N2C(=N)C(=S)N(c3ccc(OC)cc3OC)C2=O)cc1 is 0.2

Note to self: Activity recorded for COc1ccc(N2C(=O)N(c3ccc(SC)cc3)C(=N)C2=S)c(OC)c1 was 0.49

The molecule listed as N=C1C(=S)N(c2ccc(Cl)cc2)C(=O)N1Cc1ccccc1 has a reported Activity of 0.22

So for COc1ccc(N2C(=O)N(c3ccc(C)cc3)C(=N)C2=S)c(OC)c1 , the logged Activity turned out to be 0.31

====

Tested on: Escherichia coli
assay-name: Antibacterial activity against Escherichia coli NCTC 10416 at 5 mg/ml after 24 hrs by agar disc diffusion method
Assay type: functional
settings: NCTC 10416, 24 h, read-out: DIZ
Give zone of inhibition at 5000 µg/mL for every item shown.
Enter your answer as a number in mm; do not include the unit.

Reported zone of inhibition at 5000 µg/mL of Cc1ccc(N2C(=N)C(=S)N(c3ccc(I)cc3)C2=O)cc1 : 14

compound N=C1C(=S)N(c2ccccc2)C(=O)N1Cc1ccccc1 , zone of inhibition at 5000 µg/mL observed: 23.5

Reported zone of inhibition at 5000 µg/mL for N=C1C(=S)N(c2ccc(I)cc2)C(=O)N1Cc1ccccc1 was 14

For reference, reported zone of inhibition at 5000 µg/mL for Cc1ccc(N2C(=N)C(=S)N(c3ccc(Br)cc3)C2=O)cc1 stands at 16.5

====

Test system: Aspergillus flavus
assay-name: Antifungal activity against Aspergillus flavus at 5 mg/ml by agar disc diffusion method
Type: functional
settings: read-out: DIZ
Please respond with reported zone of inhibition at 5000 µg/mL for every item in the list.
Write down the numeric answer in mm and omit the unit.

Lab note: molecule N=C1C(=S)N(c2ccc(Br)cc2)C(=O)N1Cc1ccccc1 tested on Aspergillus flavus; recorded zone of inhibition at 5000 µg/mL was 15

Bench note, Aspergillus flavus: entry COc1ccc(N2C(=N)C(=S)N(c3ccc(Cl)cc3)C2=O)cc1 , its zone of inhibition at 5000 µg/mL = 17.5

Aspergillus flavus zone of inhibition at 5000 µg/mL of COc1ccc(N2C(=O)N(c3ccc(SC)cc3)C(=N)C2=S)c(OC)c1 is 14

With Aspergillus flavus as the test system, CSc1ccc(N2C(=N)C(=S)N(c3ccc(Br)cc3)C2=O)cc1 showed zone of inhibition at 5000 µg/mL of 15

Value (zone of inhibition at 5000 µg/mL, Aspergillus flavus) for record COc1ccc(N2C(=O)N(c3ccc(C)cc3)C(=N)C2=S)c(OC)c1 = 14

Assay Aspergillus flavus, sample Cc1ccc(N2C(=N)C(=S)N(c3ccccc3)C2=O)cc1 , zone of inhibition at 5000 µg/mL read: 15

// returns zone of inhibition at 5000 µg/mL for COc1ccc(N2C(=N)C(=S)N(c3ccc(OC)cc3OC)C2=O)cc1 with Aspergillus flavus; value = 17

The molecule N=C1C(=S)N(c2ccccc2)C(=O)N1Cc1ccccc1 on Aspergillus flavus: zone of inhibition at 5000 µg/mL was 17

Per the reported Aspergillus flavus data, Cc1ccc(N2C(=N)C(=S)N(c3ccc(Cl)cc3)C2=O)cc1 has zone of inhibition at 5000 µg/mL of 14

Query Cc1ccc(N2C(=N)C(=S)N(c3ccc(I)cc3)C2=O)cc1 on Aspergillus flavus; zone of inhibition at 5000 µg/mL returned: 14

Simply: N=C1C(=S)N(c2ccc(Cl)cc2)C(=O)N1Cc1ccccc1 , Aspergillus flavus, zone of inhibition at 5000 µg/mL = 18

Reading of zone of inhibition at 5000 µg/mL for COc1ccc(N2C(=N)C(=S)N(c3ccc(Br)cc3)C2=O)cc1 with Aspergillus flavus: 18

Record Cc1ccc(N2C(=N)C(=S)N(c3ccc(Br)cc3)C2=O)cc1 has Aspergillus flavus zone of inhibition at 5000 µg/mL equal to 15
